Each item that follows carries a reported Ki.
- Measured On: Human 5-HT1A Receptor (Homo sapiens, UniProt P08908)
Structures can show the parent of a compound that is named as a salt.
Answer in nM, number only, no unit symbol.

In: Provide measured Ki on Human 5-HT1A Receptor (Homo sapiens, UniProt P08908) for Cc1ccc2c3c(ccc2n1)OC[C@H](CNCC1CCc2[nH]c4cc(F)ccc4c2C1)O3 (stereo partly drawn) please.
Out: 1.8

In: Using Human 5-HT1A Receptor (Homo sapiens, UniProt P08908) as the test system, report measured Ki of Cc1ccc2c3c(ccc2n1)OC[C@H](CNCC1CCc2sc4ccc(F)cc4c2C1)O3 (single isomer, unassigned) [31 diastereomer 1] .
Out: 1.14

In: # return Ki of CCCN(CC1CCc2[nH]c3ccc(F)cc3c2C1)C[C@H]1COc2ccc3nc(C)ccc3c2O1 (stereo partly drawn) [Example 51, dihydrochloride dihydrate] (system: Human 5-HT1A Receptor (Homo sapiens, UniProt P08908))
Out: 1290

In: Fill in Ki for Cc1ccc2c3c(ccc2n1)OC[C@H](CN[C@H]1CCc2c([nH]c4ccccc24)C1)O3 (single isomer, unassigned) [Example 45, dihydrochloride] tested with Human 5-HT1A Receptor (Homo sapiens, UniProt P08908).
Out: 365

In: Look up and report measured Ki (Human 5-HT1A Receptor (Homo sapiens, UniProt P08908)) for the following molecule: Cc1ccc2c3c(ccc2n1)OC[C@H](CN(C[C@@H]1CCc2[nH]c4ccc(F)cc4c2C1)C1CCCC1)O3 [Example 59, monohydrochloride monohydrate]
Out: 3120

In: Answer with Ki of Cc1ccc2c3c(ccc2n1)OC[C@H](CN(CC1CCc2[nH]c4ccc(F)cc4c2C1)C1CCC1)O3 (stereo partly drawn) [Example 53, dihydrochloride dihydrate] measured for Human 5-HT1A Receptor (Homo sapiens, UniProt P08908).
Out: 5740

* * *

Counter-ions that a name gives are not always drawn.
Readout Type: melting point

Here's what some known entries look like.
- Compound: "CCN(CC1CCc2[nH]c3ccc(F)cc3c2C1)C[C@H]1COc2ccc3nc(C)ccc3c2O1.Cl.Cl.O.O (stereo partly drawn) (hydrate or solvate) [Example 50]"
  Result Value: "234 to 249 °C"
- Compound: "Cc1ccc2c3c(ccc2n1)OC[C@H](CNCC1CCc2c([nH]c4ccc(F)cc24)C1)O3 (stereo partly drawn) [Example 1]"
  Result Value: "92 to 96 °C"
- Compound: "Cc1ccc2c3c(ccc2n1)OC[C@H](CN(C[C@H]1CCc2[nH]c4ccc(F)cc4c2C1)C1CCCCC1)O3.Cl.O (hydrate or solvate) [Example 64]"
  Result Value: "202 to 208 °C"
- Compound: "Cc1ccc2c3c(ccc2n1)OC[C@H](CNC[C@H]1CCc2c(c4cc(F)ccc4n2C)C1)O3 (as salt: hydrochloride) [Example 7]"
  Result Value: "220 to 226 °C"
- Compound: "Cc1ccc2c3c(ccc2n1)OC[C@H](CNC[C@@H]1CCc2[nH]c4ccc(F)cc4c2C1)O3 (as salt: hydrochloride) [Example 5]"
  Result Value: "229 to 236 °C"

Proceed to the following item.
In: Supply melting point value. Item: Cc1ccc2c3c(ccc2n1)OC[C@H](CN(C[C@H]1CCc2[nH]c4ccc(F)cc4c2C1)C(C)C)O3.Cl.O (hydrate or solvate) [Example 61]
Out: 228 to 240 °C

* * *

- Measured On: cloned human 5-HT1A receptors (Homo sapiens, UniProt P08908)
- Sequence (P08908 1-422): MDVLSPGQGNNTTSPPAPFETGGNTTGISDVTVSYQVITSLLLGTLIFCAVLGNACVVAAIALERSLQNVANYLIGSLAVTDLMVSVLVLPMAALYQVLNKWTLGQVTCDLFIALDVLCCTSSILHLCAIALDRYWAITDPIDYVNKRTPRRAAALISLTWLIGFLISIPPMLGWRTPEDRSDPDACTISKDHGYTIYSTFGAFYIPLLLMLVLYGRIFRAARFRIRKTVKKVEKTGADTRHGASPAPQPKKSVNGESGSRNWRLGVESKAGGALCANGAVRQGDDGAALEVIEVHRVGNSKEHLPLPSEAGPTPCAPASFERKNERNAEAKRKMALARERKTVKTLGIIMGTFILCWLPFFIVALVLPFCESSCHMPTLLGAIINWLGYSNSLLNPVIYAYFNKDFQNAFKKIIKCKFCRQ
Counter-ions that a name gives are not always drawn.
Readout Type: pIC50
Lab note: report pIC50 as minus log10 of the concentration in molar units, number only.

Illustrative cases are given below, each with its answer.
- Compound: "Cc1ccc2c3c(ccc2n1)OC[C@H](CNCC1CCc2c(sc4cc(F)ccc24)C1)O3 (single isomer, unassigned) [39 diastereomer 2]"
  Result Value: 6.93
- Compound: "Cc1ccc2c3c(ccc2n1)OC[C@H](CN[C@H]1CCc2c([nH]c4ccccc24)C1)O3 (single isomer, unassigned) [Example 45, dihydrochloride]"
  Result Value: 6.34
- Compound: "Cc1ccc2c3c(ccc2n1)OC[C@H](CNCC[C@H]1CCc2[nH]c4ccc(F)cc4c2C1)O3 (single isomer, unassigned) [Example 42, dihydrochloride]"
  Result Value: 6.45
- Compound: "Cc1ccc2c3c(ccc2n1)OC[C@H](CNCC1CCc2c(sc4cc(F)ccc24)C1)O3 (single isomer, unassigned) [39 diastereomer 1]"
  Result Value: 6.19
- Compound: "Cc1ccc2c3c(ccc2n1)OC[C@H](CN(CC1CC1)CC1CCc2[nH]c4ccc(F)cc4c2C1)O3 (stereo partly drawn) [Example 52, dihydrochloride dihydrate]"
  Result Value: 5.80

Shifting focus to the compound that follows.
In: Specify reported pIC50 for the compound shown: Cc1ccc2c3c(ccc2n1)OC[C@H](CNC1CCc2c([nH]c4ccccc24)C1)O3.Cl.Cl (mixture of isomers) [Example 43, dihydrochloride]
Out: 6.71

* * *

Entries with their measured pIC50, system cloned human 5-HT1A receptors (Homo sapiens, UniProt P08908):
Counter-ions that a name gives are not always drawn.
Note on units: pIC50 is unitless, being -log10 of a concentration expressed in mol/L.

These recorded examples may help you get a feel for the data.
- Compound: "Cc1ccc2c3c(ccc2n1)OC[C@H](CNCC1CCc2sc4ccccc4c2C1)O3 (single isomer, unassigned) [32 diastereomers 1]"
  pIC50: 6.31
- Compound: "CCCN(C[C@@H]1CCc2[nH]c3ccc(F)cc3c2C1)C[C@H]1COc2ccc3nc(C)ccc3c2O1 [Example 54, dihydrochloride dihydrate]"
  pIC50: 6.24
- Compound: "Cc1ccc2c3c(ccc2n1)OC[C@H](CN(C[C@@H]1CCc2[nH]c4ccc(F)cc4c2C1)C1CCC1)O3 [Example 56, dihydrochloride dihydrate]"
  pIC50: 5.51
- Compound: "Cc1ccc2c3c(ccc2n1)OC[C@H](CNCC1CCc2sc4ccc(F)cc4c2C1)O3 (single isomer, unassigned) [31 diastereomer 1]"
  pIC50: 6.81

In: Lab note: record pIC50 of Cc1ccc2c3c(ccc2n1)OC[C@H](CNCC1CCc2sc4ccc(F)cc4c2C1)O3 (single isomer, unassigned) [31 diastereomer 2] tested on cloned human 5-HT1A receptors (Homo sapiens, UniProt P08908).
Out: 6.54

In: Print cloned human 5-HT1A receptors (Homo sapiens, UniProt P08908) pIC50 for CCN(CC1CCc2[nH]c3ccc(F)cc3c2C1)C[C@H]1COc2ccc3nc(C)ccc3c2O1 (some centres unmarked) [Example 50, dihydrochloride dihydrate] .
Out: 6.75

In: Please respond with reported pIC50 (system cloned human 5-HT1A receptors (Homo sapiens, UniProt P08908)) for Cc1ccc2c3c(ccc2n1)OC[C@H](CN(CC1CC1)C[C@@H]1CCc2[nH]c4ccc(F)cc4c2C1)O3 [Example 55, dihydrochloride dihydrate] .
Out: 5.95

In: Enter recorded pIC50 with cloned human 5-HT1A receptors (Homo sapiens, UniProt P08908) for Cc1ccc2c3c(ccc2n1)OC[C@H](CNCCC1CCc2[nH]c4ccc(F)cc4c2C1)O3 (mixture of isomers) [Example 40, dihydrochloride] here.
Out: 7.12

* * *

- Measured On: UniProt P31645
- Sequence (P31645 whole entry): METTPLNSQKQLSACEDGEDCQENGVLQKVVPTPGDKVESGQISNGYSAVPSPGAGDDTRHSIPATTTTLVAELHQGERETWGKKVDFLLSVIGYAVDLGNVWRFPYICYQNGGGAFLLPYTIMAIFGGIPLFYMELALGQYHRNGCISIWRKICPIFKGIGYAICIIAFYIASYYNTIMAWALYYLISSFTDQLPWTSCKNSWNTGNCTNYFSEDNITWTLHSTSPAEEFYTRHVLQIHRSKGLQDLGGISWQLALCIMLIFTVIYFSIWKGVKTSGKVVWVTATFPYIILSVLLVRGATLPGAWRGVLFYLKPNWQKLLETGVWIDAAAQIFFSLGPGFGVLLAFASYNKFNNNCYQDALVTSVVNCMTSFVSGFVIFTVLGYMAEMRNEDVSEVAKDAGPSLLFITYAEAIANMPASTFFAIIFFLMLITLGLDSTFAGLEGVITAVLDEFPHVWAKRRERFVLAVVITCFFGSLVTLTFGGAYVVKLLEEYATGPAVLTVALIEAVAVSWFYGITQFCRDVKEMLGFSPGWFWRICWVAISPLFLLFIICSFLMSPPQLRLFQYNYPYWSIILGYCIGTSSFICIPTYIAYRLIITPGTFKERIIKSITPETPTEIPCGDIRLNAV
Counter-ions that a name gives are not always drawn.
Readout Type: IC50 (nM)
Respond with the bare value in nM.

Sample records with IC50:
- Compound: "Cc1ccc2c3c(ccc2n1)OC[C@H](CN(C[C@H]1CCc2[nH]c4ccc(F)cc4c2C1)C(C)C)O3 [Example 61, monohydrochloride monohydrate]"
  Measured On: "UniProt P31645"
  Readout Type: "IC50"
  Units Text: "nM"
  Result Value: 1700
- Compound: "Cc1ccc2c3c(ccc2n1)OC[C@H](CN(C[C@H]1CCc2[nH]c4ccc(F)cc4c2C1)C1CCCCC1)O3 [Example 64, monohydrochloride monohydrate]"
  Measured On: "UniProt P31645"
  Readout Type: "IC50"
  Units Text: "nM"
  Result Value: 2490
- Compound: "Cc1ccc2c3c(ccc2n1)OC[C@H](CNCC1CCc2sc4ccccc4c2C1)O3 (single isomer, unassigned) [32 diastereomer 2]"
  Measured On: "UniProt P31645"
  Readout Type: "IC50"
  Units Text: "nM"
  Result Value: 885
- Compound: "Cc1ccc2c3c(ccc2n1)OC[C@H](CN(CC1CCc2c(c4cc(F)ccc4n2C)C1)C1CCCCC1)O3 (some centres unmarked) [Example 67, monohydrochloride monohydrate]"
  Measured On: "UniProt P31645"
  Readout Type: "IC50"
  Units Text: "nM"
  Result Value: 505
- Compound: "Cc1ccc2c3c(ccc2n1)OC[C@H](CNCC[C@@H]1CCc2[nH]c4ccc(F)cc4c2C1)O3 (single isomer, unassigned) [Example 41, dihydrochloride]"
  Measured On: "UniProt P31645"
  Readout Type: "IC50"
  Units Text: "nM"
  Result Value: 0.58
- Compound: "CCC(C)N(C[C@@H]1CCc2[nH]c3ccc(F)cc3c2C1)C[C@H]1COc2ccc3nc(C)ccc3c2O1 (some centres unmarked) [Example 58, monohydrochloride monohydrate]"
  Measured On: "UniProt P31645"
  Readout Type: "IC50"
  Units Text: "nM"
  Result Value: 113
- Compound: "Cc1ccc2c3c(ccc2n1)OC[C@H](CN(C[C@@H]1CCc2[nH]c4ccc(F)cc4c2C1)C1CCCC1)O3 [Example 59, monohydrochloride monohydrate]"
  Measured On: "UniProt P31645"
  Readout Type: "IC50"
  Units Text: "nM"
  Result Value: 115
- Compound: "Cc1ccc2c3c(ccc2n1)OC[C@H](CN(CC1CCc2[nH]c4ccc(F)cc4c2C1)C1CCC1)O3 (some centres unmarked) [Example 53, dihydrochloride dihydrate]"
  Measured On: "UniProt P31645"
  Readout Type: "IC50"
  Units Text: "nM"
  Result Value: 39.1
- Compound: "Cc1ccc2c3c(ccc2n1)OC[C@H](CN[C@@H]1CCc2c([nH]c4ccc(F)cc24)C1)O3 (single isomer, unassigned) [Example 47, dihydrochloride]"
  Measured On: "UniProt P31645"
  Readout Type: "IC50"
  Units Text: "nM"
  Result Value: 102
- Compound: "Cc1ccc2c3c(ccc2n1)OC[C@H](CNCCC1CCc2[nH]c4ccc(F)cc4c2C1)O3 (mixture of isomers) [Example 40, dihydrochloride]"
  Measured On: "UniProt P31645"
  Readout Type: "IC50"
  Units Text: "nM"
  Result Value: 1.24

Pending compound:
In: Provide only the value of recorded IC50 for Cc1ccc2c3c(ccc2n1)OC[C@H](CN[C@@H]1CCc2c([nH]c4ccccc24)C1)O3 (single isomer, unassigned) [Example 44, dihydrochloride]
Out: 22.1

The origin of these recorded values is patent US7297704B2.
